Numbers sourced from paper PMC9653804.

- Assay info: DPPH free radical scavenging activity
- Measurement setup: DPPH radical scavenging
Quantity measured: IC50 (µM)
# value in µM; strip the unit string

Molecule: COc1ccccc1C1CN(C)C2(c3ccccc3-c3nc4ccccc4nc32)C12CC(=O)N(C)C2=O (centres unmarked)
IC50 [µM]: 3.26

Here's the next entry for you.
Task item: GET /values?readout=IC50&item= Cc1ccc(C2CN(C)C3(c4ccccc4-c4nc5ccccc5nc43)C23CC(=O)N(C)C3=O)cc1 (centres unmarked)
Reply: 33.7

---

The compounds listed here are annotated with their MFC/MIC.
- System: Candida albicans ATCC 90028
- Assay info: Antifungal activity (MIC, MFC) against C. albicans
- Type: cell-based
- Measurement setup: C. albicans ATCC 90028; fungicidal ≤ 4, fungistatic > 4; '-' = No activity
Please reply with the number alone, leaving off any unit.

Compound: CN1C(=O)CC2(C1=O)C(c1cccs1)CN(C)C21c2ccccc2-c2nc3ccccc3nc21 (stereo not drawn)
MFC/MIC: 4

Task item: GET /values?readout=MFC/MIC&item= Cc1ccc(C2CN(C)C3(c4ccccc4-c4nc5ccccc5nc43)C23CC(=O)N(C)C3=O)cc1 (stereo not drawn)
Reply: 2

Task item: GET /values?readout=MFC/MIC&item= CN1C(=O)CC2(C1=O)C(c1cc(Br)c(O)c(Br)c1)CN(C)C21c2ccccc2-c2nc3ccccc3nc21 (stereo not drawn)
Reply: 1

---

- Assay info: Radical scavenging activity ABTS
- Measurement setup: ABTS radical scavenging
Quantity measured: IC50
Value and unit, in that order.

Molecule: CN1C(=O)CC2(C1=O)C(c1ccc(Cl)cc1)CN(C)C21c2ccccc2-c2nc3ccccc3nc21 (stereo not shown)
Result: 12.2 µM

Task item: GET /values?readout=IC50&item= CN1C(=O)CC2(C1=O)C(c1cccs1)CN(C)C21c2ccccc2-c2nc3ccccc3nc21 (stereo not shown)
Reply: 18 µM

Task item: GET /values?readout=IC50&item= COc1ccc(C2CN(C)C3(c4ccccc4-c4nc5ccccc5nc43)C23CC(=O)N(C)C3=O)cc1OC (stereo not shown)
Reply: 11.6 µM

Task item: GET /values?readout=IC50&item= COc1ccc(C2CN(C)C3(c4ccccc4-c4nc5ccccc5nc43)C23CC(=O)N(C)C3=O)cc1Br (stereo not shown)
Reply: 7.69 µM

Task item: GET /values?readout=IC50&item= CN1C(=O)CC2(C1=O)C(c1cccc(Cl)c1)CN(C)C21c2ccccc2-c2nc3ccccc3nc21 (stereo not shown)
Reply: 11.4 µM

Task item: GET /values?readout=IC50&item= COc1ccc(C2CN(C)C3(c4ccccc4-c4nc5ccccc5nc43)C23CC(=O)N(C)C3=O)cc1 (stereo not shown)
Reply: 9.78 µM

Task item: GET /values?readout=IC50&item= Cc1c(C)c2c(c(C)c1O)CCC(C)(C(=O)O)O2 (stereo not shown) [Trolox, reference compound]
Reply: 99.9 µM

---

- Test system: Staphylococcus aureus ATCC 25923
The compounds listed here are annotated with their MIC.
# value in mM; strip the unit string

Task item: Return MIC measured with Staphylococcus aureus ATCC 25923 given this compound: COc1ccc(C2CN(C)C3(c4ccccc4-c4nc5ccccc5nc43)C23CC(=O)N(C)C3=O)cc1 (stereo not drawn)
Reply: 3.95

Task item: Return MIC measured with Staphylococcus aureus ATCC 25923 given this compound: COc1ccc(C2CN(C)C3(c4ccccc4-c4nc5ccccc5nc43)C23CC(=O)N(C)C3=O)cc1Br (stereo not drawn)
Reply: 54.7

Task item: Return MIC measured with Staphylococcus aureus ATCC 25923 given this compound: CN1C(=O)CC2(C1=O)C(c1ccc(O)c(Br)c1)CN(C)C21c2ccccc2-c2nc3ccccc3nc21 (stereo not drawn)
Reply: 28

---

- Assay info: DPPH free radical scavenging activity
- Measurement setup: DPPH radical scavenging
The molecules listed here are annotated with their pIC50.
Note on pIC50: it is the negative log10 of concentration, concentration in mol/L.

Task item: GET /values?readout=pIC50&item= Cc1c(C)c2c(c(C)c1O)CCC(C)(C(=O)O)O2 (stereo not drawn) [Trolox, reference compound]
Reply: 4.51

Task item: GET /values?readout=pIC50&item= CN1C(=O)CC2(C1=O)C(c1cccc(Cl)c1)CN(C)C21c2ccccc2-c2nc3ccccc3nc21 (stereo not drawn) [5i]
Reply: 5.11

Task item: GET /values?readout=pIC50&item= CN1C(=O)CC2(C1=O)C(c1ccc(F)cc1)CN(C)C21c2ccccc2-c2nc3ccccc3nc21 (stereo not drawn) [5g]
Reply: 4.58
